Experiment: amyloid nucleation score (Sup35N fusion, yeast selection) (log enrichment); library NNK3; higher = more nucleation; inactive = no reads after selection;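 further: zero at mode of non-aggregating sequences after 7 days selection at 30°C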
quantity.name: amyloid nucleation score

> print(dat)
               substance    result
 1         NTNVVSDYIHHAF  inactive
 2   RNVGKGNAVQSGPAWIERS  inactive
 3            SDYGSFLEFH     -0.27
 4  YNCRTLNCNYQVYYFVFLSD      3.15
 5       WQHSRSLDTSACCPT  inactive
 6                YLVFFA  inactive
 7  RGPVNCYYRISPRRPRHVSE  inactive
 8            KRECYMIIHI  inactive
 9           FMNKLGDFNLP  inactive
10          SYQDMLSYNRMR  inactive
11  INGDMFSSFENVCYYEVSSL    -0.325
12  LYSHSGSFSIGSQFNFVWFT      1.44
13        EKFNCNVFIANWAK     0.358
14               VKEMFKF  inactive
15                VLDVVY  inactive
16           GHFLISIKKLL  inactive
17         ESSFSGLYYDSAM  inactive
18  YICVKYEVYNFTFYFVSGFW  inactive
19            CAESIRHRRP  inactive
